- System: Escherichia coli TOP10
- test_method_notes: shrunken log2 fold change of peptide-encoding DNA abundance (4.5 h post-induction vs induction); higher = less antimicrobial activity (less host growth inhibition)
- applied_conditions: time post-induction: 4.5 h; library: site-saturation at positions 5, 18, 19, 20
Response field class: string, computed from recorded shrunken log2 fold change by ranges low (below -0.03), mid (-0.03 to below 0.2), high (0.2 or more)

Answered examples (3):
Returns: class label. Input: RRIRKRPPRLPRPRPRPPAGPRP
high

Returns: class label. Input: RRIRQRPPRLPRPRPRPGNRPRP
mid

Returns: class label. Input: RRIRRRPPRLPRPRPRPALTPRP
high

New cases:
Returns: class label. Input: RRIRSRPPRLPRPRPRPCMEPRP
low

Returns: class label. Input: RRIRERPPRLPRPRPRPLMMPRP
low

Returns: class label. Input: RRIRNRPPRLPRPRPRPGQWPRP
high

---

- Tested on: Escherichia coli TOP10
- test_method_notes: shrunken log2 fold change of peptide-encoding DNA abundance (4.5 h post-induction vs induction); higher = less antimicrobial activity (less host growth inhibition)
- applied_conditions: time post-induction: 4.5 h; library: site-saturation at positions 5, 18, 19, 20
shrunken log2 fold change: recorded values
Just the number.

Consider the worked cases shown below.
I'm curious: which shrunken log2 fold change was measured for RRIRLRPPRLPRPRPRPGSKPRP tested on Escherichia coli TOP10?
-0.559

I'm curious: which shrunken log2 fold change was measured for RRIRGRPPRLPRPRPRPITFPRP tested on Escherichia coli TOP10?
-0.148

I'm curious: which shrunken log2 fold change was measured for RRIRTRPPRLPRPRPRPRVNPRP tested on Escherichia coli TOP10?
0.0441

I'm curious: which shrunken log2 fold change was measured for RRIRWRPPRLPRPRPRPGDPPRP tested on Escherichia coli TOP10?
1.14

I'm curious: which shrunken log2 fold change was measured for RRIRIRPPRLPRPRPRPCDIPRP tested on Escherichia coli TOP10?
-0.416

I'm curious: which shrunken log2 fold change was measured for RRIRQRPPRLPRPRPRPGVCPRP tested on Escherichia coli TOP10?
-0.126

I'm curious: which shrunken log2 fold change was measured for RRIRIRPPRLPRPRPRPCQIPRP tested on Escherichia coli TOP10?
-0.0429

I'm curious: which shrunken log2 fold change was measured for RRIRSRPPRLPRPRPRPSIPPRP tested on Escherichia coli TOP10?
-0.458

I'm curious: which shrunken log2 fold change was measured for RRIRLRPPRLPRPRPRPPHMPRP tested on Escherichia coli TOP10?
-0.0106

I'm curious: which shrunken log2 fold change was measured for RRIRNRPPRLPRPRPRPFQKPRP tested on Escherichia coli TOP10?
-0.185

New cases:
I'm curious: which shrunken log2 fold change was measured for RRIRQRPPRLPRPRPRPWWFPRP tested on Escherichia coli TOP10?
-0.0566

I'm curious: which shrunken log2 fold change was measured for RRIRRRPPRLPRPRPRPWGYPRP tested on Escherichia coli TOP10?
-0.275

I'm curious: which shrunken log2 fold change was measured for RRIRRRPPRLPRPRPRPDPCPRP tested on Escherichia coli TOP10?
-0.00607

I'm curious: which shrunken log2 fold change was measured for RRIRLRPPRLPRPRPRPGYKPRP tested on Escherichia coli TOP10?
-0.514

I'm curious: which shrunken log2 fold change was measured for RRIRPRPPRLPRPRPRPTICPRP tested on Escherichia coli TOP10?
0.172

I'm curious: which shrunken log2 fold change was measured for RRIRCRPPRLPRPRPRPWALPRP tested on Escherichia coli TOP10?
0.0591

I'm curious: which shrunken log2 fold change was measured for RRIRERPPRLPRPRPRPNNRPRP tested on Escherichia coli TOP10?
-0.315

I'm curious: which shrunken log2 fold change was measured for RRIRDRPPRLPRPRPRPHYQPRP tested on Escherichia coli TOP10?
0.0231

I'm curious: which shrunken log2 fold change was measured for RRIRLRPPRLPRPRPRPWLNPRP tested on Escherichia coli TOP10?;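 note: peptides expressed intracellularly from a pBAD plasmid library in pooled LB shake-flask culture, induced with 0.3% L-arabinose, DNA abundance read by NGS, three biological replicates, DESeq2 with apeglm shrinkage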
-0.183
